Measured TGI values are reported for all entries that follow.
System: NCI-H226 lung
Assay: NCI tumour cell line growth inhibition, 48 h
Respond with the bare value in µM.

Use the examples below as a reference point.
[
  {
    "Compound": "Cc1ccc(N2C(=O)/C(=C3\\Sc4c(nc(C)[nH]c4=O)N3c3ccccc3)SC2=S)cc1",
    "TGI, µM": 86.6
  },
  {
    "Compound": "C=C(Cl)C(Cl)(CBr)CCC(Cl)C(C)(C)Cl (stereo unspecified)",
    "TGI, µM": 61
  },
  {
    "Compound": "C#Cc1ccc(NC(=O)c2ccc(/C=C/C(=O)c3nccn3C)cc2)cc1",
    "TGI, µM": 2
  }
]

Now consider the entry below.
Fill in the blank: the reported TGI of Oc1c(CN2CCCC2)cc(COCc2ccccc2)c2cccnc12 is ____. 12

====

System: HCT-15 colon
Experiment: NCI tumour cell line growth inhibition, 48 h
Observable: TGI (nM)
Respond with the bare value in nM.

Use the examples below as a reference point.
[
  {
    "Compound": "CC(=O)c1cccc(NC2C(N)C(NC(=O)N(C)C)(C(C)O)C(C)(O)C2(O)COC(=O)c2c(C)cccc2O)c1 (centres undefined)",
    "TGI [nM]": 1010
  },
  {
    "Compound": "Cc1ccc2c(O)c3c(cc2c1)C(=O)c1c2c(cc(O)c1C3=O)C1(C)OC(O2)C(O)C(N(C)C)C1O (centres undefined)",
    "TGI [nM]": 2440
  }
]

Now consider the entry below.
Fill in the blank: the reported TGI of COc1cc(C2C(C#N)=C(N)OC3=C2C(=O)c2ccccc2C3=O)cc(OC)c1OC (centres undefined) is ____. 18500

====

Tested on: M19-MEL melanoma
Test: NCI tumour cell line growth inhibition, 48 h
Observable: TGI (µM)
Respond with the bare value in µM.

[
  {
    "Compound": "COc1cc(CC2c3cc(OC)c(OC)cc3CCN2C)c(Oc2cc3c(cc2OC)-c2c(OC)c(OC)c(OC)c4c2C(C3)N(C)CC4)cc1OC (stereo not given)",
    "Assay system": "M19-MEL melanoma",
    "Measurement unit": "µM",
    "Measured result": 28.6
  },
  {
    "Compound": "COc1cc2c(cc1OC)C(Cl)C(c1cc(OC)c(OC)c(OC)c1)=C2Cl (stereo not given)",
    "Assay system": "M19-MEL melanoma",
    "Measurement unit": "µM",
    "Measured result": 28.7
  }
]

Please provide the recorded TGI for CCN(CC)CCNc1ccc(C)c2sc3ccc(O)cc3c(=O)c12 , tested on M19-MEL melanoma. 2.36

Please provide the recorded TGI for Cc1ccc2[nH]c3c(C)c4ccncc4c(C)c3c2c1 , tested on M19-MEL melanoma. 2.75

====

Test system: OVCAR-5 ovarian
Experiment: NCI tumour cell line growth inhibition, 48 h
Observable: TGI

Use the examples below as a reference point.
[
  {
    "Molecule": "Fc1ccc(C(OCCN2CCC3CCC(C2)N3Cc2cc3ccccc3[nH]2)c2ccc(F)cc2)cc1 (stereo not given)",
    "TGI": "4.18 µM"
  },
  {
    "Molecule": "CCc1cccc(C)c1NC(=O)NS(=O)(=O)c1ccc(C)cc1",
    "TGI": "> 100 µM"
  },
  {
    "Molecule": "COc1ccc(NC(=O)c2cc(OC)c(OC)c(OC)c2)cc1O",
    "TGI": "> 100 µM"
  },
  {
    "Molecule": "C=C1C(C)C2C(Cc3ccccc3)NC(=O)C23C(OC(C)=O)/C=C/C(C)(O)CC(C)C/C=C/C3C1O (stereo not given)",
    "TGI": "> 100 µM"
  },
  {
    "Molecule": "CN1CCN(c2ccc3[nH]c(C4=C(O)c5nc(CO)n(C)c5C(=O)C4=O)nc3n2)CC1",
    "TGI": "> 100 µM"
  }
]

Fill in the blank: the reported TGI of CC(C)[Si](OC1=CCCCCC12C(=O)N(C)c1ccccc12)(C(C)C)C(C)C (stereo not given) is ____. 33.2 µM

Fill in the blank: the reported TGI of CC(=O)OC1CCC2(C)C(=CC(C3C=C4CC(OC(C)=O)CCC4(C)C4=C3C3CC5OC6(CCC(C)CO6)C(C)C5C3(C)CC4)C3=C2CCC2(C)C3CC3OC4(CCC(C)CO4)C(C)C32)C1 (stereo not given) is ____. 35.9 µM

Fill in the blank: the reported TGI of C#CCOC(=O)c1ccccc1OC(C)=O is ____. > 100 µM
